Numbers sourced from PubChem BioAssay AID1832.

# TARGET OR TEST SYSTEM: Zinc finger protein mex-5 (Caenorhabditis elegans) (UniProt Q9XUB2)
# Sequence (Q9XUB2 whole entry, looked up): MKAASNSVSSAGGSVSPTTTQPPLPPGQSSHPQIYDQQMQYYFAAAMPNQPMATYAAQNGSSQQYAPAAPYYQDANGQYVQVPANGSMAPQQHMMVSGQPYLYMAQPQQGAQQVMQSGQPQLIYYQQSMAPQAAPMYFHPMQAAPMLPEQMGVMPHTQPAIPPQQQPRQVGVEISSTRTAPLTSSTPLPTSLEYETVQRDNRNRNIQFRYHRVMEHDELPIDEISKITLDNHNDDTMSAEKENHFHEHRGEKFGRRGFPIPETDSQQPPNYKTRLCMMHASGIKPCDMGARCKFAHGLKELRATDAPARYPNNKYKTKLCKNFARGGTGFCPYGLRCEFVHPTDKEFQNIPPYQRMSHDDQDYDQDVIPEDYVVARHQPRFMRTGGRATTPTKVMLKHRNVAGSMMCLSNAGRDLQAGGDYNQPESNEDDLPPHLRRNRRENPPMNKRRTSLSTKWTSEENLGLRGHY
# ASSAY PROCEDURE: MEX-5 zinc finger RNA-binding disruptors – biochemical, C. elegans, fluorescence polarization, MLPCN library, primary screen (AID 1832);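 note: 0% = DMSO and -100% = 5 µM competing unlabeled TCR2 RNA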
# CONDITION DETAILS: MEX-5/FITC-TCR2 RNA binding, at 10 µM, hits give low values
The campaign covered roughly 300,000 compounds. About 1,100 (0.37%) were called active. Only a selection was taken, and actives are over-represented in it overall.
MEASURED ATTRIBUTE: activity score (negative = inhibition of binding) (%)
Could you give me the number in %? Just the number is fine.

// query activity score (negative = inhibition of binding) value for entry "Cc1ccc(-c2nn(-c3ccccc3)cc2/C=C2\SC(=S)N(CCCCCC(=O)O)C2=O)o1"
-7.25

// query activity score (negative = inhibition of binding) value for entry "CCOc1ccc(N=Cc2c(O)n(-c3cccc(C)n3)c(=O)c3ccccc23)cc1"
-1.96

// query activity score (negative = inhibition of binding) value for entry "COc1c(O)cc2oc(-c3ccc(O)c(O)c3)cc(=O)c2c1O"
-34.4

// query activity score (negative = inhibition of binding) value for entry "COc1ccc(/C=C2\SC(=S)N(CCC(=O)Nc3cccc(C(=O)O)c3)C2=O)cc1OC"
-1.23

// query activity score (negative = inhibition of binding) value for entry "Cc1[nH]c2ccccc2c1/C=N\NC(=O)Cn1nnc(-c2ccccc2)n1"
0.39

// query activity score (negative = inhibition of binding) value for entry "COc1ccc(C(=O)c2c(C)c(CCC#N)n3ccccc23)c(OC)c1"
-2.13

// query activity score (negative = inhibition of binding) value for entry "NC(=O)c1oc2ccccc2c1NC(=O)Cc1ccccc1"
-2.66

// query activity score (negative = inhibition of binding) value for entry "COc1ncnc2c1N=C1CC(C)(C)CC(N)=C1S2"
-36.1

// query activity score (negative = inhibition of binding) value for entry "COc1ccc(CCNS(=O)(=O)c2cc3c(cc2C)NC(=O)CO3)cc1OC"
0.926

// query activity score (negative = inhibition of binding) value for entry "CCCCn1c(=O)c(C(C)=O)c(O)c2ccccc21"
0.942

// query activity score (negative = inhibition of binding) value for entry CC1CC(C)CN(c2ccc(S(=O)(=O)N3CCOCC3)cc2)C1 (configuration not stated)
-0.658

// query activity score (negative = inhibition of binding) value for entry "CC(C)Cc1nnc(NC(=O)CCc2ccccc2)s1"
-0.0404

// query activity score (negative = inhibition of binding) value for entry "Fc1ccc(/C=N/Nc2nc(-c3cccnc3)nc3ccccc23)cc1"
4.03

// query activity score (negative = inhibition of binding) value for entry "CNC(=O)CN1C(=O)NC(c2ccccc2)(c2ccccc2)C1=O"
2.16

// query activity score (negative = inhibition of binding) value for entry "Cc1cc(C(=O)Nc2c(C)n(C)n(-c3ccccc3)c2=O)cs1"
2.16

// query activity score (negative = inhibition of binding) value for entry "COCCn1c(N)c(NCc2ccccc2)c(=O)[nH]c1=O"
-67.9

// query activity score (negative = inhibition of binding) value for entry "O=C(NCc1nnc(SCC(=O)N2CCC(Cc3ccccc3)CC2)o1)c1ccco1"
-1.62

// query activity score (negative = inhibition of binding) value for entry CCOC(=O)N1CCC(NC(=O)C(NS(=O)(=O)c2ccc3c(c2)CCN3C(=O)CC)C(C)C)CC1 (configuration not stated)
-1.98

// query activity score (negative = inhibition of binding) value for entry COc1cccc(-c2nc(CS(=O)CC(=O)NCc3ccc(F)cc3)c(C)o2)c1 (configuration not stated)
0.156

// query activity score (negative = inhibition of binding) value for entry "COc1cc(/C=C2/C(=O)ON=C2C)ccc1OCc1cccc(F)c1"
-9.55

// query activity score (negative = inhibition of binding) value for entry "Cc1c(NC(=O)c2coc(=O)c(Br)c2)c(=O)n(-c2ccccc2)n1C"
-44.8

// query activity score (negative = inhibition of binding) value for entry Cc1cc(=O)oc2cc(NC(=O)C3CC(=O)N(Cc4ccccc4)C3)ccc12 (configuration not stated)
-4.23

// query activity score (negative = inhibition of binding) value for entry COc1ccc(-c2nc(CS(=O)CC(=O)NCc3ccccn3)c(C)o2)cc1 (configuration not stated)
-66

// query activity score (negative = inhibition of binding) value for entry "COc1ccc(/C=C2\SC(=S)N(CCCC(=O)NC3CCCC3)C2=O)cc1OC"
-48.2

// query activity score (negative = inhibition of binding) value for entry "CC(=O)n1c(C=Nc2ccccc2)c(O)c2ccccc21"
-52.6

// query activity score (negative = inhibition of binding) value for entry "CCCCN(CC)CCCNC(=O)c1ccc(CSc2nc3ccncc3[nH]2)cc1"
1.01

// query activity score (negative = inhibition of binding) value for entry Cc1ccc2c(c1)C(c1ccccc1)N(C(=O)c1ccc(F)cc1)CC(=O)N2 (configuration not stated)
-0.463

// query activity score (negative = inhibition of binding) value for entry "COc1ccc(-c2cc(=O)c3c(O)cc(O[C@@H]4O[C@H](CO[C@@H]5O[C@@H](C)[C@H](O)[C@@H](O)[C@H]5O)[C@@H](O)[C@H](O)[C@H]4O)cc3o2)cc1O"
0.902

// query activity score (negative = inhibition of binding) value for entry "O=C1N/C(=C/c2cccn2-c2ccccc2)C(=O)N1c1cccc(Cl)c1"
3.72

// query activity score (negative = inhibition of binding) value for entry "COCCn1c(N)c(N(Cc2ccccc2)C(=O)C2CCCCC2)c(=O)[nH]c1=O"
1.74

// query activity score (negative = inhibition of binding) value for entry "COc1ccc(-c2n[nH]c3c2CN(C(=O)c2ccc(F)cc2)CC3)cc1"
0.485

// query activity score (negative = inhibition of binding) value for entry "COc1ccc(CNc2nc3c(c(=O)[nH]c(=O)n3C)n2Cc2ccccc2)cc1"
-0.659

// query activity score (negative = inhibition of binding) value for entry "COc1ccc(CCn2c(NN=C3CCCC3)nc3c2c(=O)[nH]c(=O)n3C)cc1"
1.31

// query activity score (negative = inhibition of binding) value for entry "NS(=O)(=O)c1ccc(NC(=O)/C=C/c2ccccc2Cl)cc1"
-0.539

// query activity score (negative = inhibition of binding) value for entry CCCCC1N2CC3([N+](=O)[O-])CN1CC([N+](=O)[O-])(C2)C3(C)C (configuration not stated)
-0.199

// query activity score (negative = inhibition of binding) value for entry "CN1c2ccc(C=O)c3c(C=O)ccc(c23)N(C)C1(C)C"
-35.3

// query activity score (negative = inhibition of binding) value for entry "C=CCOc1ccc(/C=C2/C(=O)ON=C2C)cc1OCC"
-10.9

// query activity score (negative = inhibition of binding) value for entry "CC(C)C[C@H](NC(=O)N1CC(=O)Nc2ccccc21)C(=O)N[C@H](Cc1ccccc1)C(=O)O"
2.99

// query activity score (negative = inhibition of binding) value for entry "Nc1nnn(CC(=O)N/N=C/c2ccccc2)n1"
-0.796

// query activity score (negative = inhibition of binding) value for entry "O=C(COC(=O)CCc1c[nH]c(=O)[nH]1)Nc1ccccc1Cl"
-36.5

// query activity score (negative = inhibition of binding) value for entry "COc1cc2c(cc1/C=C1/NC(=O)N(c3ccccc3)C1=O)OCO2"
-27

// query activity score (negative = inhibition of binding) value for entry "Cc1ccc(NC(=O)CSc2sc3c(O)cc(=O)[nH]c3c2C#N)cc1C"
-1.19
